inhibition overview
# Measured Target: Histone deacetylase (Homo sapiens) (UniProt Q13547+O15379+Q9UBN7+Q92769+Q9UQL6+Q8WUI4+Q9BY41+Q96DB2+P56524+Q9UKV0+Q969S8)
# Stated Conditions: HeLa, at 1 µM
# Description: Inhibition of HDAC in human HeLa cell nuclear extract using fluor de Lys as substrate at 1 uM after 15 mins by fluorimetric analysis
Answer in %, number only, no unit symbol.

O=C(CCCCCOc1ccc(-c2nc(N3CCOCC3)c3sccc3n2)cc1)NO
18.8
O=C(CCCCCCCCOc1ccc(-c2nc(N3CCOCC3)c3sccc3n2)cc1)NO
25.4
O=C(CCCCCCCOc1cccc(-c2nc(N3CCOCC3)c3sccc3n2)c1)NO
72
O=C(CCCCCCCCOc1cccc(-c2nc(N3CCOCC3)c3sccc3n2)c1)NO
40.6

So what does the record say about inhibition for O=C(CCCCCCCOc1ccc(-c2nc(N3CCOCC3)c3sccc3n2)cc1)NO ?
73.8

The reported measurements were obtained from ChEMBL document CHEMBL3097997.
